experiment: Vapor pressure; settings: at 20° C.
Decide using Vapor Pressure (mm Hg): a value greater than or equal to 0.2 mm Hg is true, a smaller one is false.

Could you verify whether the entry CCCCOCCO shows Vapor Pressure (mm Hg) of no less than 0.2 mm Hg?
true

Could you verify whether the entry CCCCOC(C)COC(C)COC(C)CO (centres unmarked) shows Vapor Pressure (mm Hg) of no less than 0.2 mm Hg?
false

Could you verify whether the entry CCCOC(C)COC(C)CO (centres unmarked) shows Vapor Pressure (mm Hg) of no less than 0.2 mm Hg?
false

Could you verify whether the entry CCCCOCCOC(C)=O [Butyl Cellosolve Acetate, ethylene glycol n-butyl ether acetate] shows Vapor Pressure (mm Hg) of no less than 0.2 mm Hg?
true

Could you verify whether the entry CCCOCC(C)O (centres unmarked) shows Vapor Pressure (mm Hg) of no less than 0.2 mm Hg?
true

Could you verify whether the entry CCCCOCCOCCO shows Vapor Pressure (mm Hg) of no less than 0.2 mm Hg?
false

Could you verify whether the entry COCC(C)O (centres unmarked) shows Vapor Pressure (mm Hg) of no less than 0.2 mm Hg?
true

* * *

test system: dust mites; assay: Dust mite kill efficacy, submersion method; type: in vivo; settings: 1% HC with 7% DpnP, 1% Stepanol WAC, pH 9.5; at 30 min
Assign 1% HC with 7% DpnP at 9.5 pH: % kill at 30 min to each entry below.
Report only the number, with the unit % kill understood.

1% HC with 7% DpnP at 9.5 pH: % kill at 30 min lookup needed for CCCCOCCOCCOC(C)=O [Butyl Carbitol Acetate, diethylene glycol n-butyl ether acetate] , thanks.
80

1% HC with 7% DpnP at 9.5 pH: % kill at 30 min lookup needed for OCCOc1ccccc1 , thanks.
50

1% HC with 7% DpnP at 9.5 pH: % kill at 30 min lookup needed for CCCCOCC(C)O (centres unmarked) , thanks.
60

* * *

tested on: dust mites; assay: Dust mite kill efficacy, submersion method; format: in vivo; details: 8% or saturated solutions in water; dust mites; 30 min
metricName: >50% kill in 30 min.

In [3]: df
Out[3]:
                                   compound  assaytarget  result
0  CCCOCCO [Ethylene glycol n-propyl ether]   dust mites      No
1  COC(C)COC(C)CO (stereo not shown) [Dipropylene glycol methyl ether]   dust mites      No
2  CCCCCCOCCO [Hexyl Cellosolve, ethylene glycol monohexyl ether]   dust mites     Yes
3  COCCOCCO [Diethylene glycol methyl ether]   dust mites      no
4  CCCCOCCOCCOC(C)=O [Butyl Carbitol Acetate, diethylene glycol n-butyl ether acetate]   dust mites     Yes
5  CCCCOCCOC(C)=O [Butyl Cellosolve Acetate, ethylene glycol n-butyl ether acetate]   dust mites     Yes
6  CCCCOC(C)COC(C)COC(C)CO (stereo not shown) [Dowanol TPnB, Tripropylene glycol n-butyl ether]   dust mites     Yes
7  COC(C)COC(C)COC(C)=O (stereo not shown) [Dipropylene glycol methyl ether acetate]   dust mites     Yes

Give dust mites >50% kill in 30 min. for CCCCOCC(C)O (stereo not shown) [Dowanol PnB, propylene glycol n-butyl ether]
Yes

* * *

Assign Vapor Pressure (mm Hg) to each entry below.
Assay: Vapor pressure
Procedure: The preferred vapor pressure of the solvents is less than about 1 mm Hg at 20° C., and preferably the vapor pressure is less than 0.5 mm Hg at 20° C.
Report only the number, with the unit mm Hg understood.

Vapor Pressure (mm Hg) lookup needed for CCOCCOCCO [Diethylene glycol ethyl ether] , thanks.
0.12

Vapor Pressure (mm Hg) lookup needed for COC(C)COC(C)CO (centres unmarked) [Dipropylene glycol methyl ether] , thanks.
0.17

Vapor Pressure (mm Hg) lookup needed for CCCCOCC(C)O (centres unmarked) [Dowanol PnB, propylene glycol n-butyl ether] , thanks.
0.62

Vapor Pressure (mm Hg) lookup needed for CCCOCCO [Ethylene glycol n-propyl ether] , thanks.
1.3

Vapor Pressure (mm Hg) lookup needed for COC(C)COC(C)COC(C)=O (centres unmarked) [Dipropylene glycol methyl ether acetate] , thanks.
0.05

Vapor Pressure (mm Hg) lookup needed for CCCCOCCOCCOC(C)=O [Butyl Carbitol Acetate, diethylene glycol n-butyl ether acetate] , thanks.
0.04

Vapor Pressure (mm Hg) lookup needed for COCC(C)OC(C)=O (centres unmarked) [Propylene glycol methyl ether acetate] , thanks.
3.8
